From: patent US20170283396A1

# System Tested: catalytic domain of human Bub1 (amino acids 704-1085) (Homo sapiens)
# Construct: catalytic domain of human Bub1 (amino acids 704-1085); His6 (N); made in house; host or cells: Hi5 insect cells
# Test: Bub1 kinase assay (TR-FRET)
# Type: biochemical
Assay Endpoint: IC50 (nM)

>  <Smiles Data>
CCOc1cc(F)c(Cn2nc(-c3nc(Nc4ccncc4)c(N4CCOCC4)c(Nc4ccncc4)n3)c3ccccc32)c(F)c1

>  <Measurement Unit>
nM

>  <IC50>
640

$$$$

1. CCOc1cc(F)c(Cn2nc(-c3nc(Nc4ccncn4)c(N4CCOCC4)c(Nc4ccncn4)n3)c3ccccc32)c(F)c1
2. CCNC(=O)Nc1nc(-c2nn(Cc3c(F)cc(OCC)cc3F)c3ccccc23)nc(Nc2ccncn2)c1N1CCOCC1
query: Returns: the label, 1 or 2 , whose recorded IC50 is the lower number. Choose, then provide that item's label.
result: 1
(1: 98 nM, 2: 280 nM)

====

# System: HeLa cell line
# Test: Proliferation assay (HeLa cell line)
# Assay type: cell-based
# Condition Details: Homo sapiens, 96 h, read-out: Biological Assay 2: Proliferation assay (HeLa cell line) median IC50
Assay Endpoint: IC50 (µM)

As a guide, the following entries are already answered.
>  <Smiles Data>
CCOc1cc(F)c(Cn2nc(-c3nc(N)c(OC)c(Nc4ccncc4)n3)c3ccccc32)c(F)c1

>  <Assay Endpoint>
IC50

>  <Measurement Unit>
µM

>  <Experimental Result>
3.8

$$$$
>  <Smiles Data>
CCOc1cc(F)c(Cn2nc(-c3nc4c(c(Nc5ccncc5)n3)OCC(=O)N4)c3ccccc32)c(F)c1

>  <Assay Endpoint>
IC50

>  <Measurement Unit>
µM

>  <Experimental Result>
1.2

$$$$

A. CCOc1cc(F)c(Cn2nc(-c3nc(Nc4ccncc4)nc(Nc4ccncc4)n3)c3ccccc32)c(F)c1
B. CCOc1cc(F)c(Cn2nc(-c3nc(Nc4ccncc4)c(NC(=O)COC)c(Nc4ccncc4)n3)c3ccccc32)c(F)c1
query: In the pair A and B , the larger recorded IC50 belongs to which? Choose, then provide that item's label.
result: B
(B: 2.5 µM, A: 0.94 µM)

====

# System Tested: catalytic domain of human Bub1 (amino acids 704-1085) (Homo sapiens, UniProt O43683)
# Construct: catalytic domain of human Bub1 (amino acids 704-1085); His6 (N); made in house; host or cells: Hi5 insect cells
# Sequence (O43683 704-1085): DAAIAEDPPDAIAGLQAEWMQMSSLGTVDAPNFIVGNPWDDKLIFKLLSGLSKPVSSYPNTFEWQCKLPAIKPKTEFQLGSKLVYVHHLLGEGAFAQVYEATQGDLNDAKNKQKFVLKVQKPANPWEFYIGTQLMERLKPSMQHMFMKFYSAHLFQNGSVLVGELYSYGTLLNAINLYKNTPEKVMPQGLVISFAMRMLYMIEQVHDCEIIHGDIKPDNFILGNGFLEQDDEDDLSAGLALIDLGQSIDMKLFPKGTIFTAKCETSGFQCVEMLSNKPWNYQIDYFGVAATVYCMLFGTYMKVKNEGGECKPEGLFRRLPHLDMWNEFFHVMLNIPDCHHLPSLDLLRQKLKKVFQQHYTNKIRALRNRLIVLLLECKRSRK
# Test: Bub1 kinase assay (TR-FRET)
# Format: biochemical
# Condition Details: TR-FRET, 10 μM ATP, 1 μM peptide substrate; read-out: Biological Assay 1: Bub1 kinase assay median IC50
Assay Endpoint: IC50 (nM)

1. CCOc1cc(F)c(Cn2nc(-c3nc4c(c(Nc5ccncc5)n3)OCC(=O)N4)c3ccccc32)c(F)c1
2. CCOc1cc(F)c(Cn2nc(-c3nc(Nc4ccncc4)c(NC(=O)COC)c(Nc4ccncc4)n3)c3ccccc32)c(F)c1
query: In the pair 1 and 2 , the larger recorded IC50 belongs to which? Choose, then provide that item's label.
result: 2
(2: 220 nM, 1: 8 nM)

a. CCOc1cc(F)c(Cn2nc(-c3nc(N)c(OCCO)c(Nc4ccncc4)n3)c3ccccc32)c(F)c1
b. CCOc1cc(F)c(Cn2nc(-c3nc(Nc4ccncn4)c(NC(=O)COC)c(Nc4ccncn4)n3)c3ccccc32)c(F)c1
query: Returns: the label, a or b , whose recorded IC50 is the lower number. Choose, then provide that item's label.
result: a

I. CCOc1cc(F)c(Cn2nc(-c3nc(N)c(NS(=O)(=O)C(F)(F)F)c(Nc4ccncc4)n3)c3ccccc32)c(F)c1
II. CCOc1cc(F)c(Cn2nc(-c3nc4c(c(Nc5ccncn5)n3)OCC(=O)N4)c3ccccc32)c(F)c1
III. CCOc1cc(F)c(Cn2nc(-c3nc(N)c(OCCOC)c(Nc4ccncn4)n3)c3ccccc32)c(F)c1
query: Arrange by IC50, high to low. Reply with the item labels sorted in the order that was asked for.
result: II, I, III
